Every entry's value here was drawn from patent US8962637B2.

Let's look at some molecules and their measured EC50.
- System: A431 cancer cell line
- assay.protocol: Inhibition of cell growth in A431
- Type: cell-based
- test.context: Homo sapiens, A-431
Answer with a number only, understood to be in nM.

{"compound.smiles": "Cc1ccc(NC(=O)c2cccc(C(F)(F)F)c2)cc1N1CCc2nc(Nc3ccc(C(=O)N4CCN(C)CC4)cc3)ncc2C1", "assay.system": "A431 cancer cell line", "quantity.unit": "nM", "EC50": 92}
{"compound.smiles": "Cc1ccc(NC(=O)c2cccc(C(F)(F)F)c2)cc1N1CCc2nc(Nc3ccc(C(=O)N4CCCC4)cc3)ncc2C1", "assay.system": "A431 cancer cell line", "quantity.unit": "nM", "EC50": 290}
{"compound.smiles": "Cc1ccc(NC(=O)c2cccc(C(F)(F)F)c2)cc1N1CCc2nc(Nc3cccc(CN4CCN(C)CC4)c3)ncc2C1", "assay.system": "A431 cancer cell line", "quantity.unit": "nM", "EC50": 670}
{"compound.smiles": "Cc1ccc(NC(=O)c2cccc(C(F)(F)F)c2)cc1N1CCc2nc(Nc3cncnc3)ncc2C1", "assay.system": "A431 cancer cell line", "quantity.unit": "nM", "EC50": 180}

Q: What does the data say about its EC50? Entry: "Cc1ccc(NC(=O)c2cccc(C(F)(F)F)c2)cc1N1CCc2nc(Nc3ccc(C(=O)NC4CC4)nc3)ncc2C1"
Result: 330

Q: Similarly, "Cc1ccc(NC(=O)c2cccc(C(F)(F)F)c2)cc1N1CCc2nc(Nc3ccc(S(=O)(=O)NC4CC4)cc3)ncc2C1" ?
Result: 320

Q: Similarly, "Cc1ccc(NC(=O)c2cccc(C(F)(F)F)c2)cc1N1CCc2nc(Nc3ccc(C(=O)NC4CCN(C)CC4)cc3)ncc2C1" ?
Result: 26

====

Let's look at some molecules and their measured inhibition at 1 µM.
- assay.system: JAK1 (Homo sapiens (Human))
- Sequence (P23458 whole entry): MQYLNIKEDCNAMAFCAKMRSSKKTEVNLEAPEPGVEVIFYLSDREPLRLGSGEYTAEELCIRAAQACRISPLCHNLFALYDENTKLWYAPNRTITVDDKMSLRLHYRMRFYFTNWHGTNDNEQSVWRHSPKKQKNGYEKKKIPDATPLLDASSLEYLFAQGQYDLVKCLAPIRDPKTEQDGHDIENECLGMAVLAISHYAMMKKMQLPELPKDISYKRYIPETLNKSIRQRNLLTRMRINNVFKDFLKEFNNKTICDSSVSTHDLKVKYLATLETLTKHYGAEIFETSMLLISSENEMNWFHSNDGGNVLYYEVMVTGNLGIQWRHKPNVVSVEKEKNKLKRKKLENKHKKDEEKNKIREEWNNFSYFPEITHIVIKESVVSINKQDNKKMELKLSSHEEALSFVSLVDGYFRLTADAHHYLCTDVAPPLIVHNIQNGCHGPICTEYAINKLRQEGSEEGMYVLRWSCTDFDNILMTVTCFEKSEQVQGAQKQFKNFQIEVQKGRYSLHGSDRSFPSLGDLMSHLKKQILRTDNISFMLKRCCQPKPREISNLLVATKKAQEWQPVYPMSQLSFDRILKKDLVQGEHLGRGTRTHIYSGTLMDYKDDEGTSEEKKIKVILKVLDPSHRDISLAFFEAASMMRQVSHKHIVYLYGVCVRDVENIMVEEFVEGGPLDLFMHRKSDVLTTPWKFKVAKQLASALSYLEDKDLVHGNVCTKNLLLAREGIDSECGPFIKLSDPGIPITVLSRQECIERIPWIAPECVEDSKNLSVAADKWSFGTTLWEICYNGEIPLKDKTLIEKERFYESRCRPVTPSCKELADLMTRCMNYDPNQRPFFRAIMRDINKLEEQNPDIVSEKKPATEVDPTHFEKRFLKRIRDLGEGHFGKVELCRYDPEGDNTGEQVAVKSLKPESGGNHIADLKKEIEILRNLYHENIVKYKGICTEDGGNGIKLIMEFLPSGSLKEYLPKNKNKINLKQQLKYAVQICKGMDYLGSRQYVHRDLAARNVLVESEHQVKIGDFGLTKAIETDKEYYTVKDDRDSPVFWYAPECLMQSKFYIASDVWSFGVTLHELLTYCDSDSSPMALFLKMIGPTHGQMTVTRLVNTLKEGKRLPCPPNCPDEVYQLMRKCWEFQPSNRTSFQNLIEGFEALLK
- assay.protocol: JAK1 kinase inhibition
- Assay type: biochemical
- test.context: read-out: JAK1 % inhibition at 1 μM
# include the unit after the value

Guide cases for inhibition at 1 µM, answers given:
{"compound.smiles": "Cc1ccc(NC(=O)c2cccc(C(F)(F)F)c2)cc1N1CCc2nc(Nc3ccncc3)ncc2C1=O", "assay.system": "JAK1 (Homo sapiens (Human))", "inhibition at 1 µM": "79%"}
{"compound.smiles": "Cc1ccc(NC(=O)c2cccc(C(F)(F)F)c2)cc1N1CCc2nc(Nc3ccc(OCCN4CCCC4)cc3)ncc2C1", "assay.system": "JAK1 (Homo sapiens (Human))", "inhibition at 1 µM": "85%"}
{"compound.smiles": "Cc1ccc(NC(=O)c2cccc(C(F)(F)F)c2)cc1N1CCc2nc(Nc3ccc4c(c3)CCC(=O)N4)ncc2C1", "assay.system": "JAK1 (Homo sapiens (Human))", "inhibition at 1 µM": "89%"}

Q: What does the data say about its inhibition at 1 µM? Entry: "Cc1cc(Nc2ncc3c(n2)CCN(c2cc(NC(=O)c4cccc(C(F)(F)F)c4)ccc2Cl)C3=O)ccc1N1CCN(C)CC1"
Result: 84%

Q: Similarly, "Cc1ccc(NC(=O)c2cccc(C(F)(F)F)c2)cc1N1CCc2nc(Nc3cccnc3)ncc2C1" ?
Result: 88%

====

Notes on IC50 obtained with c-Src (Homo sapiens (Human), UniProt P12931).
Sequence (P12931 whole entry, looked up): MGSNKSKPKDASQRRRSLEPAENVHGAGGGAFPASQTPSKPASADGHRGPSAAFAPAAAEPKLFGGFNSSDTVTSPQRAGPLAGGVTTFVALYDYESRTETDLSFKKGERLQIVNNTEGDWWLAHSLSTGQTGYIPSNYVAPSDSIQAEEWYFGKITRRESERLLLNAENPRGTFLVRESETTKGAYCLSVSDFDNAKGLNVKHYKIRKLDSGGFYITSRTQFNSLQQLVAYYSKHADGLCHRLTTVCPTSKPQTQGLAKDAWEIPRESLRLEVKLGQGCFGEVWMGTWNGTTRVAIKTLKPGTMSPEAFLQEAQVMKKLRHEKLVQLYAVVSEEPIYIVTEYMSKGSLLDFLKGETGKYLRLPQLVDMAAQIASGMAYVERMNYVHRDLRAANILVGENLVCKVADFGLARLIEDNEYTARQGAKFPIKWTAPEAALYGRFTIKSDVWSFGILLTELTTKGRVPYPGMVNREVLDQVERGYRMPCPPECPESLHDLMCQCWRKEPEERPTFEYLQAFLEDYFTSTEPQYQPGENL
Answer with a number only, understood to be in µM.

Guide cases for IC50, answers given:
{"molecule": "Cc1ccc(NC(=O)c2cccc(C(F)(F)F)c2)cc1N1CCc2nc(Nc3ccc(OCCN4CCCC4)cc3)ncc2C1=O [Compound 7]", "recorded.endpoint": "IC50", "endpoint.result": 0.016}
{"molecule": "Cc1ccc(NC(=O)c2cccc(C(F)(F)F)c2)cc1N1CCc2nc(Nc3ccc(C(=O)NCCO)cc3)ncc2C1 [Compound 98]", "recorded.endpoint": "IC50", "endpoint.result": 0.001}
{"molecule": "Cc1ccc(NC(=O)CCC(F)(F)F)cc1N1CCc2nc(Nc3ccc(C(=O)N4CCN(C)CC4)cc3)ncc2C1 [Compound 164]", "recorded.endpoint": "IC50", "endpoint.result": 0.026}
{"molecule": "Cc1ccc(NC(=O)CC(C)C(F)(F)F)cc1N1CCc2nc(Nc3ccc(OCCN4CCCC4)cc3)ncc2C1 (stereo not shown) [Compound 155]", "recorded.endpoint": "IC50", "endpoint.result": 0.002}
{"molecule": "Cc1ccc(NC(=O)CC(C)C(F)(F)F)cc1N1CCc2nc(Nc3ccc(N4CCN(C)CC4)cc3)ncc2C1 (stereo not shown) [Compound 123]", "recorded.endpoint": "IC50", "endpoint.result": 0.003}

Q: What does the data say about its IC50? Entry: Cc1ccc(NC(=O)c2cc(C(F)(F)F)ccn2)cc1N1CCc2nc(Nc3ccc(C(=O)N4CCN(C)CC4)cc3)ncc2C1 [Compound 167]
Result: 0.027

Q: Similarly, Cc1ccc(NC(=O)c2cccc(C(F)(F)F)c2)cc1N1CCc2nc(Nc3ccc(N4CCN(C)CC4)cc3)ncc2C1=O [Compound 45] ?
Result: 0.01

====

- assay.system: c-Src (Homo sapiens (Human), UniProt P12931)
- assay.protocol: TR-FRET c-Src kinase assay
- Type: biochemical
- test.context: read-out: c-SRC % inhibition at 100 nM; 100 nM; ATP 50 μM
Let's look at some molecules and their measured inhibition at 0.1 µM.
Answer with a number only, understood to be in %.

Guide cases for inhibition at 0.1 µM, answers given:
{"molecule": "Cc1ccc(NC(=O)c2cccc(C(F)(F)F)c2)cc1N1CCc2nc(Nc3ccc(OCCCN4CCOCC4)cc3)ncc2C1=O [Compound 182]", "assay.system": "c-Src (Homo sapiens (Human), UniProt P12931)", "quantity.unit": "%", "inhibition at 0.1 µM": 51}
{"molecule": "Cc1ccc(NC(=O)c2cccc(C(F)(F)F)c2)cc1N1CCc2nc(Nc3ccc(S(=O)(=O)NC4CC4)cc3)ncc2C1 [Compound 165]", "assay.system": "c-Src (Homo sapiens (Human), UniProt P12931)", "quantity.unit": "%", "inhibition at 0.1 µM": 93}

Q: What does the data say about its inhibition at 0.1 µM? Entry: Cc1ccc(NC(=O)N2CCCCC2)cc1N1CCc2nc(Nc3ccc(OCCN4CCCC4)cc3)ncc2C1 [Compound 107]
Result: 93

Q: Similarly, Cc1ccc(NC(=O)c2cc(Cl)cc(C(F)(F)F)c2)cc1N1CCc2nc(Nc3ccc(N4CCN(C)CC4)cc3)ncc2C1=O [Compound 120] ?
Result: 94

Q: Similarly, Cc1ccc(NC(=O)c2cc(C(F)(F)F)ccn2)cc1N1CCc2nc(Nc3ccc(N4CCN(C)CC4)cc3)ncc2C1=O [Compound 166] ?
Result: 60

Q: Similarly, Cc1ccc(NC(=O)CCC(F)(F)F)cc1N1CCc2nc(Nc3ccc(C(=O)N4CCN(C)CC4)cc3)ncc2C1 [Compound 164] ?
Result: 70

Q: Similarly, CN1CCN(c2ccc(Nc3ncc4c(n3)CCN(c3cc(NC(=O)c5cc(F)cc(C(F)(F)F)c5)ccc3Cl)C4=O)cc2)CC1 [Compound 172] ?
Result: 66

====

Let's look at some compounds and their measured pEC50.
- Test system: A431 cancer cell line
- assay.protocol: Inhibition of cell growth in A431
- Assay type: cell-based
- test.context: Homo sapiens, A-431
Hey, just a heads up that pEC50 is the negative log base 10 of the concentration in molar.

Guide cases for pEC50, answers given:
{"compound.smiles": "Cc1ccc(NC(=O)c2cccc(C(C)(C)C)c2)cc1N1CCc2nc(Nc3ccc(N4CCN(C)CC4)cc3)ncc2C1=O", "assay.system": "A431 cancer cell line", "pEC50": 6.24}
{"compound.smiles": "CNC(=O)c1ccc(Nc2ncc3c(n2)CCN(c2cc(NC(=O)c4cccc(C(F)(F)F)c4)ccc2C)C3)cn1", "assay.system": "A431 cancer cell line", "pEC50": 6.62}

Q: What does the data say about its pEC50? Entry: "Cc1ccc(NC(=O)c2cccc(C(F)(F)F)c2)cc1N1CCc2nc(Nc3ccc(N4CCN(C)CC4)cc3)ncc2C1=O"
Result: 5.85

Q: Similarly, "Cc1ccc(NC(=O)c2ccc(C(F)(F)F)s2)cc1N1CCc2nc(Nc3ccc(OCCN4CCCC4)cc3)ncc2C1" ?
Result: 6.66

Q: Similarly, "Cc1ccc(NC(=O)c2cccc(C(F)(F)F)c2)cc1N1CCc2nc(Nc3ccc(OCCN4CCCC4)cc3)ncc2C1=O" ?
Result: 5.84

Q: Similarly, "Cc1ccc(NC(=O)c2cccc(C(F)(F)F)c2)cc1N1CCc2nc(Nc3ccc(C(=O)N4CCN(C)CC4)cc3)ncc2C1=O" ?
Result: 5.97

Q: Similarly, "Cc1ccc(NC(=O)N2CCCCC2)cc1N1CCc2nc(Nc3ccc(OCCN4CCCC4)cc3)ncc2C1" ?
Result: 6.92

====

Let's look at some compounds and their measured inhibition at 1 µM.
- assay.system: JAK2 (Homo sapiens (Human), UniProt O60674)
- Sequence (O60674 whole entry): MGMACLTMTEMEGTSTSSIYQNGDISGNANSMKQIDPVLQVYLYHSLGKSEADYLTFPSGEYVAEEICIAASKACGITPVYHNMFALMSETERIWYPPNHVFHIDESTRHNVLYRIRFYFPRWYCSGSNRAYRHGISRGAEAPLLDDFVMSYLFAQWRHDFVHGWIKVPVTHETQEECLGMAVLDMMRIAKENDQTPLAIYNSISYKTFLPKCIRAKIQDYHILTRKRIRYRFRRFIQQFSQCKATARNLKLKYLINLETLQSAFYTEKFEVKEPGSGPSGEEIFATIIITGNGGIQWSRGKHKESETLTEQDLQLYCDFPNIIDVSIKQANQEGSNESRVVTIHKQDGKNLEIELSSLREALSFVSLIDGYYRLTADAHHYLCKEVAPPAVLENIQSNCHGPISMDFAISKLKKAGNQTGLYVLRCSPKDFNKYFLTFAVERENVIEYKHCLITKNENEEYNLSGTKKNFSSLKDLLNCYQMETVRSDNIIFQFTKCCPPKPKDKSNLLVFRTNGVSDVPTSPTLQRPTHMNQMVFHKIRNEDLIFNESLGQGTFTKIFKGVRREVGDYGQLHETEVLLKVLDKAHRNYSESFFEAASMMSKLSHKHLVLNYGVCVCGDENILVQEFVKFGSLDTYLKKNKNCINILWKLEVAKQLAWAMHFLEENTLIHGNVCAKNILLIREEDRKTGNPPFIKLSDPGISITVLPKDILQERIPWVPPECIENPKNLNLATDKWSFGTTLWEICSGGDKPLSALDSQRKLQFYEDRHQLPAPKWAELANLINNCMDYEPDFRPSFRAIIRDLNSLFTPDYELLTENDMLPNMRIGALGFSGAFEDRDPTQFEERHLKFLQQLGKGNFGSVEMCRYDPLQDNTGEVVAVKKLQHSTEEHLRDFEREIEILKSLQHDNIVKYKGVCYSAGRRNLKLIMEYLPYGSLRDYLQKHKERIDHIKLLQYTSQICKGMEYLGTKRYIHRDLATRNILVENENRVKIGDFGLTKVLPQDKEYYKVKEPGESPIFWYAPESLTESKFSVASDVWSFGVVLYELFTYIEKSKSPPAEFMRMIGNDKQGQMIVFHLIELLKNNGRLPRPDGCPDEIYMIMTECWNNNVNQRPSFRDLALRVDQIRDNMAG
- assay.protocol: TR-FRET JAK2 kinase assay
- Assay type: biochemical
- test.context: read-out: JAK2 % inhibition at 1 μM; 1 μM; ATP 10 μM
Answer with a number only, understood to be in %.

Guide cases for inhibition at 1 µM, answers given:
{"compound.smiles": "Cc1ccc(NC(=O)c2cc(C(F)(F)F)ccn2)cc1N1CCc2nc(Nc3ccc(C(=O)N4CCN(C)CC4)cc3)ncc2C1", "assay.system": "JAK2 (Homo sapiens (Human), UniProt O60674)", "endpoint.result": 97}
{"compound.smiles": "Cc1ccc(NC(=O)c2ccc(C(F)(F)F)s2)cc1N1CCc2nc(Nc3ccc(OCCN4CCCC4)cc3)ncc2C1", "assay.system": "JAK2 (Homo sapiens (Human), UniProt O60674)", "endpoint.result": 98}
{"compound.smiles": "Cc1ccc(NC(=O)c2cc(C(F)(F)F)ccn2)cc1N1CCc2nc(Nc3ccc(N4CCN(C)CC4)cc3)ncc2C1=O", "assay.system": "JAK2 (Homo sapiens (Human), UniProt O60674)", "endpoint.result": 93}

Q: What does the data say about its inhibition at 1 µM? Entry: "CN1CCN(c2ccc(Nc3ncc4c(n3)CCN(c3cc(NC(=O)c5cccc(C(F)(F)F)c5)ccc3Cl)C4)cc2)CC1"
Result: 97

Q: Similarly, "Cc1ccc(NC(=O)CC2CCCC2)cc1N1CCc2nc(Nc3ccc(OCCN4CCCC4)cc3)ncc2C1" ?
Result: 98

Q: Similarly, "CN1CCN(c2ccc(Nc3ncc4c(n3)CCN(c3cc(NC(=O)c5cccc(C(F)(F)F)c5)ccc3Cl)C4=O)cc2)CC1" ?
Result: 97
